Please go through the items and note down their Minimum Inhibitory Concentration, S. aureus 77.
Test system: S. aureus 77
Experiment: Minimum Inhibitory Concentration (MIC), agar dilution, standard strains
Assay type: cell-based, Staphylococcus aureus
Conditions: Table 2; Mueller-Hinton agar, 37° C., 20 hours
Give bare numbers, in µg/mL.

Hi there! I need Minimum Inhibitory Concentration, S. aureus 77 for each item below, if you can.
1. Cn1c(N)n[n+]2c(SC/C=C/C3=C(C(=O)O)N4C(=O)[C@@H](NC(=O)CSc5cc(Cl)nc(Cl)c5)[C@H]4SC3)nc(N)cc12 [Compound I-14]
2. CC[n+]1c(N)cc(N)nc1SC/C=C/C1=C(C(=O)O)N2C(=O)[C@@H](NC(=O)CSc3cc(Cl)nc(Cl)c3)[C@H]2SC1 [Compound I-16]
3. Nc1nc(SC/C=C/C2=C(C(=O)O)N3C(=O)[C@@H](NC(=O)CSc4cc(Cl)nc(Cl)c4)[C@H]3SC2)c2c([n+]1N)CCC2 [Compound I-17]
4. Nc1cc(N)[n+](C/C=C/C2=C(C(=O)O)N3C(=O)[C@@H](NC(=O)CSc4cc(Cl)nc(Cl)c4)[C@H]3SC2)cn1 [Compound I-18]
5. CN[C@H](CC(C)C)C(=O)N[C@H]1C(=O)N[C@@H](CC(N)=O)C(=O)N[C@H]2C(=O)N[C@H]3C(=O)N[C@H](C(=O)N[C@H](C(=O)O)c4cc(O)cc(O)c4-c4cc3ccc4O)[C@H](O)c3ccc(c(Cl)c3)Oc3cc2cc(c3O[C@@H]2O[C@H](CO)[C@@H](O)[C@H](O)[C@H]2O[C@H]2C[C@](C)(N)[C@H](O)[C@H](C)O2)Oc2ccc(cc2Cl)[C@H]1O [Vancomycin, vancomycin, reference compound]

OUT:
1. 0.13
2. 0.13
3. 0.25
4. 0.25
5. 1

----------
Test system: S. aureus 241
Assay: Minimum Inhibitory Concentration (MIC), agar dilution, standard strains
Assay type: cell-based, Staphylococcus aureus
Details: Staphylococcus aureus, 241; Table 1; Mueller-Hinton agar, 37° C., 20 hours; read-out: Minimum Inhibitory Concentration, S. aureus 241
property: MIC (µg/mL)
Give bare numbers, in µg/mL.

Some compounds with known MIC results, for comparison:
# query smiles, system tested, endpoint value
rows = [
    ("Nc1nc(O)cc(SC/C=C/C2=C(C(=O)O)N3C(=O)[C@@H](NC(=O)CSc4cc(Cl)ccc4Cl)[C@H]3SC2)n1", "S. aureus 241", 4),
    ("CNc1cc(N)nc(SC/C=C/C2=C(C(=O)O)N3C(=O)[C@@H](NC(=O)CSc4cc(Cl)ccc4Cl)[C@H]3SC2)n1", "S. aureus 241", 16),
    ("Nc1nc(SC/C=C/C2=C(C(=O)O)N3C(=O)[C@@H](NC(=O)CSc4cc(Cl)ccc4Cl)[C@H]3SC2)nc2c1CCC2", "S. aureus 241", 32),
    ("Nc1cc(SC/C=C/C2=C(C(=O)O)N3C(=O)[C@@H](NC(=O)CSc4cc(Cl)ccc4Cl)[C@H]3SC2)nc(N)n1", "S. aureus 241", 4),
    ("Nc1cc(N)nc(SC/C=C/C2=C(C(=O)O)N3C(=O)[C@@H](NC(=O)CSc4cc(Cl)ccc4Cl)[C@H]3SC2)n1", "S. aureus 241", 4),
]

Hi there! I need MIC for each item below, if you can.
1. CSc1nc(C)cc(SC/C=C/C2=C(C(=O)O)N3C(=O)[C@@H](NC(=O)CSc4cc(Cl)ccc4Cl)[C@H]3SC2)n1
2. Nc1ncnc(SC/C=C/C2=C(C(=O)O)N3C(=O)[C@@H](NC(=O)CSc4cc(Cl)ccc4Cl)[C@H]3SC2)c1N
3. Cc1c(N)nc(SC/C=C/C2=C(C(=O)O)N3C(=O)[C@@H](NC(=O)CSc4cc(Cl)ccc4Cl)[C@H]3SC2)nc1N

OUT:
[32, 16, 16]
